assay: qHTS assay to identify small molecule agonists of the estrogen receptor beta (ER-beta) signaling pathway - cell viability counter screen (AID 1259380); conditions: ER-beta-bla HEK293T viability, CellTiter-Glo luminescence, 16 h; series mostly up to 92.4 µM; also: % is scaled to controls: 0 for no effect and ±100 for the full control effect; nearly all actives have a fitted effect of over 30% in size
Records with an inconclusive call do not appear. Active and inactive are the calls of the source. Calls follow the shape of the dose curve; as a rule, active = well fitted cell-killing curve with a large enough effect in the repeat runs; inconclusive = weak or mixed curves, or effect the other way; inactive = flat fitted curve, though single readings scatter.

{"Molecule": "COc1ccccc1N1CCN(CC(O)COc2cc(OC)c(OC)c(OC)c2)CC1 (stereo not given)", "activity change, negative = cytotoxicity": "inactive"}
{"Molecule": "CC(C)(O)CCCC1=CCC(C=O)CC1 (stereo not given)", "activity change, negative = cytotoxicity": "inactive"}
{"Molecule": "O=C[C@@H](O)[C@H](O)[C@H](O)CO", "activity change, negative = cytotoxicity": "inactive"}
{"Molecule": "O=S(=O)(O)c1cc(I)c(O)c2ncccc12", "activity change, negative = cytotoxicity": "inactive"}
{"Molecule": "C[C@@H]1NC(=O)[C@@H](N)CNC(=O)[C@H](C2CCNC(N)=N2)NC(=O)/C(=C/NC(N)=O)NC(=O)[C@H](CNC(=O)C[C@@H](N)CCCN)NC1=O (stereo not given in full)", "activity change, negative = cytotoxicity": "11.9% [at 0.349 µM] (inactive)"}
{"Molecule": "CC(O)CCCCn1c(=O)c2c(ncn2C)n(C)c1=O (stereo not given)", "activity change, negative = cytotoxicity": "inactive"}
{"Molecule": "Cc1cc(C)c(C)c(C)c1", "activity change, negative = cytotoxicity": "inactive"}
{"Molecule": "CCN1CCN(C(=O)N[C@@H](C(=O)N[C@@H]2C(=O)N3C(C(=O)O)=C(CSc4nnnn4C)CS[C@H]23)c2ccc(O)cc2)C(=O)C1=O", "activity change, negative = cytotoxicity": "inactive"}
{"Molecule": "CCOC(=O)[C@H](CCc1ccccc1)N[C@H]1CS[C@H](c2cccs2)CN(CC(=O)O)C1=O", "activity change, negative = cytotoxicity": "inactive"}
{"Molecule": "BrCCOc1ccccc1", "activity change, negative = cytotoxicity": "inactive"}

###

assay: qHTS assay to identify small molecule antagonists of the estrogen receptor alpha (ER-alpha) signaling pathway using the BG1 cell line - cell viability counter screen (AID 743081); details: BG1Luc4E2 viability, CellTiter-Fluor, 22 h; series mostly up to 70.3 µM;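 also: compound given together with 17beta-estradiol as the ER stimulus; % is scaled to controls: 0 for no effect and ±100 for the full control effect; nearly all actives have a fitted effect of over 45% in size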
Records with an inconclusive call do not appear. Active and inactive are the calls of the source. Calls come from the whole dose curve; as a rule, active = well fitted cell-killing curve with a large enough effect in the repeat runs; inconclusive = weak or mixed curves, or effect the other way; inactive = flat fitted curve, though single readings scatter.

{"Molecule": "CC[C@@]1(c2ccccc2)NC(=O)N(C)C1=O", "activity change, negative = cytotoxicity": "inactive"}
{"Molecule": "Clc1cc(Cl)c(Cl)c(Cl)c1Cl", "activity change, negative = cytotoxicity": "inactive"}
{"Molecule": "O=Cc1ccc(C(=O)O)cc1", "activity change, negative = cytotoxicity": "inactive"}
{"Molecule": "CC(C)(C)OC(=O)c1ccccc1C(=O)O", "activity change, negative = cytotoxicity": "inactive"}
{"Molecule": "COc1ccc(Cl)cc1C", "activity change, negative = cytotoxicity": "inactive"}
{"Molecule": "C=CCn1cc[n+](C)c1", "activity change, negative = cytotoxicity": "inactive"}
{"Molecule": "C[C@@H]1CC[C@@]2(OC1)O[C@H]1C[C@H]3[C@@H]4CC[C@H]5C[C@@H](O)CC[C@]5(C)[C@H]4CC(=O)[C@]3(C)[C@H]1[C@@H]2C", "activity change, negative = cytotoxicity": "inactive"}
{"Molecule": "CCOC(=O)CC", "activity change, negative = cytotoxicity": "inactive"}
{"Molecule": "Cc1nc2ccc(Cl)cc2[nH]1", "activity change, negative = cytotoxicity": "inactive"}
{"Molecule": "C=CCON/C(CCC)=C1\\C(=O)CC(C)(C)C(C(=O)OC)=C1O", "activity change, negative = cytotoxicity": "inactive"}
{"Molecule": "CCCCCCCCCCCCCCCC/C=C/C1CC(=O)OC1=O (centres undefined)", "activity change, negative = cytotoxicity": "inactive"}
{"Molecule": "O=C(O)CCCCCCCCCC(=O)O", "activity change, negative = cytotoxicity": "inactive"}
{"Molecule": "C=CC(=O)CC", "activity change, negative = cytotoxicity": "inactive"}
{"Molecule": "O=C(O)COc1ccc2ccccc2c1", "activity change, negative = cytotoxicity": "inactive"}
{"Molecule": "CC(=O)c1c(C)cc(C(C)(C)C)cc1C", "activity change, negative = cytotoxicity": "inactive"}
{"Molecule": "O=C(CCBr)N1CCN(C(=O)CCBr)CC1", "activity change, negative = cytotoxicity": "inactive"}
{"Molecule": "CC/C=C\\CCOC(=O)c1ccccc1", "activity change, negative = cytotoxicity": "inactive"}
{"Molecule": "C[Si](C)(C)O[Si](O)(O)O", "activity change, negative = cytotoxicity": "inactive"}
{"Molecule": "O=S(=O)(O)CC(O)CCl (centres undefined)", "activity change, negative = cytotoxicity": "inactive"}
{"Molecule": "CC(=O)Nc1ccc(OCCOCCOc2ccc(NC(C)=O)cc2)cc1", "activity change, negative = cytotoxicity": "inactive"}
{"Molecule": "O=CN1CCCCC1", "activity change, negative = cytotoxicity": "inactive"}
{"Molecule": "CCN1CCN(C(=O)N[C@@H](C(=O)N[C@@H]2C(=O)N3C(C(=O)O)=C(CSc4nnnn4C)CS[C@H]23)c2ccc(O)cc2)C(=O)C1=O", "activity change, negative = cytotoxicity": "inactive"}
{"Molecule": "CC(=O)SC[C@@H](C)C(=O)N1CCC[C@H]1C(=O)N[C@@H](Cc1ccccc1)C(=O)O", "activity change, negative = cytotoxicity": "inactive"}
{"Molecule": "CCNC(=O)C(C)OC(=O)Nc1ccccc1 (centres undefined)", "activity change, negative = cytotoxicity": "inactive"}
{"Molecule": "COc1cc(NS(=O)(=O)c2ccc(N)cc2)ncn1", "activity change, negative = cytotoxicity": "inactive"}
{"Molecule": "CCCCN=C(N)N=C(N)N", "activity change, negative = cytotoxicity": "inactive"}
{"Molecule": "CC(C)(O)c1ccc(C(C)(C)O)cc1", "activity change, negative = cytotoxicity": "inactive"}
{"Molecule": "CCCCCCCCCCCCCC(=O)OCC", "activity change, negative = cytotoxicity": "inactive"}
{"Molecule": "O=C(O)/C=C(\\CC(=O)O)C(=O)O", "activity change, negative = cytotoxicity": "inactive"}
{"Molecule": "C/C=C(\\C)C=O", "activity change, negative = cytotoxicity": "inactive"}
{"Molecule": "CC(O)CCCCn1c(=O)c2c(ncn2C)n(C)c1=O (centres undefined)", "activity change, negative = cytotoxicity": "inactive"}
{"Molecule": "Cc1ccc(Br)cc1", "activity change, negative = cytotoxicity": "inactive"}
{"Molecule": "Nc1ccc(C(=O)NCC(=O)O)cc1", "activity change, negative = cytotoxicity": "inactive"}
{"Molecule": "Cc1ccc(O)c(C(=O)c2ccccc2)c1", "activity change, negative = cytotoxicity": "inactive"}
{"Molecule": "C[C@]12C=CC(=O)C=C1[C@@H](F)C[C@@H]1[C@@H]2[C@@H](O)C[C@@]2(C)[C@H]1CC[C@]2(O)C(=O)CO", "activity change, negative = cytotoxicity": "inactive"}
{"Molecule": "CCCCCC(=O)CC", "activity change, negative = cytotoxicity": "inactive"}
{"Molecule": "CC/C=C/CCCCCCCCCCOC(C)=O", "activity change, negative = cytotoxicity": "inactive"}
{"Molecule": "CC(C)(Sc1cc(C(C)(C)C)c(O)c(C(C)(C)C)c1)Sc1cc(C(C)(C)C)c(O)c(C(C)(C)C)c1", "activity change, negative = cytotoxicity": "inactive"}
{"Molecule": "CC(C)c1cc(C(C)C)cc(C(C)C)c1", "activity change, negative = cytotoxicity": "inactive"}
{"Molecule": "N=C(N)N1CCc2ccccc2C1", "activity change, negative = cytotoxicity": "inactive"}
{"Molecule": "COC(=O)c1ccc(C(=O)O)cc1", "activity change, negative = cytotoxicity": "inactive"}
{"Molecule": "C/C(Cl)=C/CCl", "activity change, negative = cytotoxicity": "inactive"}
{"Molecule": "Cc1cc(C)c(N)c(Cl)c1", "activity change, negative = cytotoxicity": "inactive"}
{"Molecule": "N=C(N)N", "activity change, negative = cytotoxicity": "inactive"}
{"Molecule": "NC[C@H]1O[C@H](O[C@H]2[C@H](O)[C@@H](O[C@H]3O[C@H](CO)[C@@H](O)[C@H](N)[C@H]3O)[C@H](N)C[C@@H]2N)[C@H](N)[C@@H](O)[C@@H]1O", "activity change, negative = cytotoxicity": "inactive"}
{"Molecule": "CC1(C)S[C@@H]2[C@H](NC(=O)Cc3ccccc3)C(=O)N2[C@H]1C(=O)O (tested in a mixture with another compound)", "activity change, negative = cytotoxicity": "inactive"}
{"Molecule": "CC(CC(=O)Cl)CC(C)(C)C (centres undefined)", "activity change, negative = cytotoxicity": "inactive"}
{"Molecule": "CC(C)(C)c1ccc(N)cc1", "activity change, negative = cytotoxicity": "inactive"}
{"Molecule": "C=CCOC(=O)CCCCCCCC", "activity change, negative = cytotoxicity": "inactive"}
{"Molecule": "CCOC(=O)CC(C(C)=O)C(C)=O", "activity change, negative = cytotoxicity": "inactive"}
{"Molecule": "CCCCNCC", "activity change, negative = cytotoxicity": "inactive"}
{"Molecule": "CSC(=O)c1cccc2nnsc12", "activity change, negative = cytotoxicity": "inactive"}
{"Molecule": "NC(=O)CC[C@@H](N)C(=O)O", "activity change, negative = cytotoxicity": "inactive"}
{"Molecule": "CN(C)CCc1c[nH]c2ccc(C[C@H]3COC(=O)N3)cc12", "activity change, negative = cytotoxicity": "inactive"}

Value source: PubChem BioAssay (Tox21)
